I'd be grateful if you could share measured rate of killed adults for these entries.
- System: organophosphorous agent resistant two-spotted spider mites
- ASSAY_METHOD_TEXT: Effect on Two-spotted Spider Mite (spray on kidney bean leaves)
- Type: in vivo
- MEASUREMENT_SETUP: 125 ppm, water dispersible powder of Formulation Example 1 sprayed, 17 female adults, 25° C., 65% humidity, 3 days
# value in %; strip the unit string

According to the records, this compound CC(C)(C)OC(=O)c1cc(C(F)(F)F)ccc1OC1CC2CCC(C1)N2c1ccc(C(F)(F)F)cn1 (centres unmarked) displays rate of killed adults of 100

Lab book: rate of killed adults of CCCOc1cc(C(F)(F)F)ccc1OC1CCN(c2ccc(C(F)(F)F)cn2)CC1C (centres unmarked) noted as 100

Short answer for CC(C)(C)OC(=O)c1cc(C(F)(F)F)ccc1O[C@@H]1[C@@H]2CC[C@H]1CN(c1ccc(C(F)(F)F)cn1)C2 : rate of killed adults was 100

Summary for this compound, CCOc1cc(C(F)(F)F)ccc1OC1CCN(c2ccc(Br)cn2)CC1 : rate of killed adults is 100

Given item FC(F)(F)Sc1ccc(OC2CCN(c3ccc(C(F)(F)F)cn3)CC2)cc1 , the value recorded as its rate of killed adults is 100

Entry under test: C#CCOc1cc(C(F)(F)F)ccc1OC1C2CCC1CN(c1ccc(C(F)(F)F)cn1)C2 (centres unmarked) . Its rate of killed adults was 100

Entry CC1COC(c2cc(C(F)(F)F)ccc2OC2C3CCC2CN(c2ccc(C(F)(F)F)cn2)C3)O1 (centres unmarked) — recorded rate of killed adults = 100

So for CCCOc1cc(C(F)(F)F)ccc1O[C@@H]1[C@@H]2CC[C@H]1CN(c1ccc(C=O)cn1)C2 , the logged rate of killed adults turned out to be 100

Just so you know, measured rate of killed adults for Cc1noc(-c2cc(C(F)(F)F)ccc2OC2CCN(c3ccc(C(F)(F)F)cn3)CC2)n1 came out at 100

rate of killed adults reported for this compound FC(F)(F)c1ccc(N2CCC(Oc3ccc(C(F)(F)F)cc3Br)CC2)nc1 : 100

CCCOc1cc(C(F)(F)F)ccc1OC1CCN(c2ccc(C(F)(F)F)cn2)C(C)C1 (centres unmarked) yielded rate of killed adults of 100

Data point: Fc1ccc(OC2CCN(c3ccc(C(F)(F)F)cn3)CC2)cc1C(F)(F)F ; rate of killed adults = 100

Reported rate of killed adults of FC(F)(F)c1ccc(N2CC3CCC(C2)C3Oc2ccc(C(F)(F)F)cc2OCC2CCCO2)nc1 (centres unmarked) [5-204] : 100

Quick note, rate of killed adults for CCS(=O)(=O)Oc1cc(C(F)(F)F)ccc1OC1CC2CCC(C1)N2c1ccc(C(F)(F)F)cn1 (centres unmarked) landed at 100

// sample CC1(C)COC(c2cc(C(F)(F)F)ccc2O[C@@H]2[C@@H]3CC[C@H]2CN(c2ccc(C(F)(F)F)cn2)C3)N1 (some centres unmarked) , its rate of killed adults was 100

The compound listed as FC(F)(F)c1ccc(N2C3CCC2CC(Oc2ccc(C(F)(F)F)cc2OCCCl)C3)nc1 (centres unmarked) shows rate of killed adults equal to 100

Per the record, Cc1cc(OC(F)(F)F)ccc1OC1CCN(c2ccc(C(F)(F)F)cn2)CC1 has rate of killed adults of 100
